Target: Autotaxin (Homo sapiens)
Assay: Inhibition of human NPP2 expressed in African green monkey COS7 cell membranes pre-incubated for 5 mins before pNP-TMP substrate addition and further incubated for 35 mins by colorimetric method relative to untreated control
Set-up: concentration or dose not given beside the values
metricName: inhibition (%)

[[record]]
compound = "O=C(Nc1ccc(OS(=O)(=O)c2ccccc2)cc1)C1CCCC1"
metricname = "inhibition"
obsvalue = 38

[[record]]
compound = "CS(=O)(=O)Oc1ccc(NC(=O)C2CCCCC2)cc1"
metricname = "inhibition"
obsvalue = 33

[[record]]
compound = "CC(C)c1cc(C(C)C)c(S(=O)(=O)Oc2ccc(NC(=O)C3CCCCCCC3)cc2)c(C(C)C)c1"
metricname = "inhibition"
obsvalue = 46

[[record]]
compound = "CC(C)c1cc(C(C)C)c(S(=O)(=O)Oc2ccc(NC(=O)c3ccc4ccccc4c3)cc2)c(C(C)C)c1"
metricname = "inhibition"
obsvalue = 42

[[record]]
compound = "CC(C)(C)c1ccc(S(=O)(=O)Oc2ccc(NC(=O)C3CCCC3)cc2)cc1"
metricname = "inhibition"
obsvalue = 42

[[record]]
compound = "O=C(Nc1ccc(OS(=O)(=O)c2ccc(F)cc2)cc1)c1ccc2ccccc2c1"
metricname = "inhibition"
obsvalue = 33

[[record]]
compound = "Cc1ccc(S(=O)(=O)Oc2ccc(NC(=O)C3CCCCC3)cc2)cc1"
metricname = "inhibition"
obsvalue = 27

[[record]]
compound = "CC(C)(C)c1ccc(S(=O)(=O)Oc2ccc(NC(=O)C3CCCCC3)cc2)cc1"
metricname = "inhibition"
obsvalue = 39

[[record]]
compound = "CC(C)(C)c1ccc(S(=O)(=O)Oc2ccc(NC(=O)c3ccc4ccccc4c3)cc2)cc1"
metricname = "inhibition"
obsvalue = 38

[[record]]
compound = "CC(C)(C)c1ccc(S(=O)(=O)Oc2ccc(NC(=O)C3CCCCCCC3)cc2)cc1"
metricname = "inhibition"
obsvalue = 49

[[record]]
compound = "O=C(Nc1ccc(OS(=O)(=O)c2ccc(F)cc2)cc1)C1CCCCC1"
metricname = "inhibition"
obsvalue = 37

[[record]]
compound = "O=C(Nc1ccc(OS(=O)(=O)c2ccccc2)cc1)C1CCCCCC1"
metricname = "inhibition"
obsvalue = 28

[[record]]
compound = "CC(C)(C)c1ccc(S(=O)(=O)Oc2ccc(NC(=O)c3ccc(Cl)cc3)cc2)cc1"
metricname = "inhibition"
obsvalue = 31

[[record]]
compound = "Cc1ccc(S(=O)(=O)Oc2ccc(NC(=O)C3CCCCCC3)cc2)cc1"
metricname = "inhibition"
obsvalue = 24

[[record]]
compound = "O=C(Nc1ccc(OS(=O)(=O)c2ccc(C(F)(F)F)cc2)cc1)C1CCCCCC1"
metricname = "inhibition"
obsvalue = 34

[[record]]
compound = "CC(C)c1cc(C(C)C)c(S(=O)(=O)Oc2ccc(NC(=O)C3CCCCCC3)cc2)c(C(C)C)c1"
metricname = "inhibition"
obsvalue = 23

[[record]]
compound = "CC(C)c1cc(C(C)C)c(S(=O)(=O)Oc2ccc(NC(=O)c3ccc(Cl)cc3)cc2)c(C(C)C)c1"
metricname = "inhibition"
obsvalue = 24

[[record]]
compound = "O=C(Nc1ccc(OS(=O)(=O)c2ccc(C(F)(F)F)cc2)cc1)c1ccc2ccccc2c1"
metricname = "inhibition"
obsvalue = 22


* * *

Heads up, these compounds all have pIC50 values measured for Ectonucleotide pyrophosphatase/phosphodiesterase family member 3 (Homo sapiens).
pIC50: −log10 of the molar value.
metricName: pIC50

[[record]]
compound = "CC(C)(C)c1ccc(S(=O)(=O)Oc2ccc(NC(=O)C3CCCCC3)cc2)cc1"
obsvalue = 6.09

[[record]]
compound = "CC(C)(C)c1ccc(S(=O)(=O)Oc2ccc(NC(=O)c3ccc(Cl)cc3)cc2)cc1"
obsvalue = 5.82

[[record]]
compound = "O=C(Nc1ccc(OS(=O)(=O)c2ccccc2)cc1)c1ccc(Cl)cc1"
obsvalue = 5.56

[[record]]
compound = "Cc1ccc(S(=O)(=O)Oc2ccc(NC(=O)C3CCCCCC3)cc2)cc1"
obsvalue = 6.59

[[record]]
compound = "O=C(Nc1ccc(OS(=O)(=O)c2ccc(C(F)(F)F)cc2)cc1)C1CCCCCCC1"
obsvalue = 6.67

[[record]]
compound = "CC(C)c1cc(C(C)C)c(S(=O)(=O)Oc2ccc(NC(=O)c3ccc4ccccc4c3)cc2)c(C(C)C)c1"
obsvalue = 5.54

[[record]]
compound = "O=C(Nc1ccc(OS(=O)(=O)c2ccc(F)cc2)cc1)C1CCCCC1"
obsvalue = 6.60

[[record]]
compound = "CC(C)(C)c1ccc(S(=O)(=O)Oc2ccc(NC(=O)C3CCCC3)cc2)cc1"
obsvalue = 5.57

[[record]]
compound = "O=C(Nc1ccc(OS(=O)(=O)c2ccccc2)cc1)C1CCCC1"
obsvalue = 5.76

[[record]]
compound = "CCCS(=O)(=O)Oc1ccc(NC(=O)C2CCCCC2)cc1"
obsvalue = 5.62

[[record]]
compound = "Cc1ccc(S(=O)(=O)Oc2ccc(NC(=O)c3ccc(Cl)cc3)cc2)cc1"
obsvalue = 5.79

[[record]]
compound = "O=C(Nc1ccc(OS(=O)(=O)c2ccccc2)cc1)C1CCCCC1"
obsvalue = 5.97

[[record]]
compound = "O=C(Nc1ccc(OS(=O)(=O)c2ccc(F)cc2)cc1)C1CCCCCC1"
obsvalue = 5.64

